From: patent US20240116985A1

Assay system: full-length beta-Catenin (Uniprot ID P35222) (Homo sapiens (Human)) (UniProt P35222)
Sequence (P35222 whole entry, the tested form may be a part): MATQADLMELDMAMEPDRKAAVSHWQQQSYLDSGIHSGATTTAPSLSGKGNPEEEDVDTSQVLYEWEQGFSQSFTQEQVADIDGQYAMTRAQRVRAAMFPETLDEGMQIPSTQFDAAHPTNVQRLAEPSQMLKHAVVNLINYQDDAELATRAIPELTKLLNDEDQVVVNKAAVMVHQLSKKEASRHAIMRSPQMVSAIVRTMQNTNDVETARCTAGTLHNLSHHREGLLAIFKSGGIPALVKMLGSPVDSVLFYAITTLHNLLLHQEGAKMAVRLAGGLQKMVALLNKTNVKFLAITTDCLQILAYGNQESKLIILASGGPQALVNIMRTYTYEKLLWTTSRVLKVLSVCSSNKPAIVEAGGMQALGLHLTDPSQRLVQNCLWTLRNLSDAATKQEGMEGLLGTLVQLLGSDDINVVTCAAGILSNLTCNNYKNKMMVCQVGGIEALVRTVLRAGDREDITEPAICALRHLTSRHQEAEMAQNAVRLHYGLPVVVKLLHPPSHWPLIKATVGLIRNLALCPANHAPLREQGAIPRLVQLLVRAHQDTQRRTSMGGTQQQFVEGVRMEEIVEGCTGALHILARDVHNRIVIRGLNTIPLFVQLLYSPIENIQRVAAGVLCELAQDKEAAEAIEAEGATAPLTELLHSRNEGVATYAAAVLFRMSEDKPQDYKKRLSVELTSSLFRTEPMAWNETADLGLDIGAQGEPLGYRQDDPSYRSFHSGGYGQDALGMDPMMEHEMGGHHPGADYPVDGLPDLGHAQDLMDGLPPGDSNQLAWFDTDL
Procedure details: fluorescence polarization competition; full-length beta-catenin with 5FAM-labeled TCF4 residues 10-53 probe as competitor
Starred links: 1 amine or outer side, 2 acyl side, 3 side chain; linkers in the order of their positions; H or OH if unused. Positions of bridges follow the written chain, without caps; N, C: chain ends. Non-standard residues stand in square brackets, D forms with d. Primed or numbered codes have the meaning given here. *: point of attachment. B5(4) = 2,2-bis(4-pentenyl)glycine = 2-amino-2-(pent-4-en-1-yl)hept-6-enoic acid (stitching residue), C=CCCCC(CCCC=C)(N[*:1])C(=O)[*:2]; Bta = N[C@@H](Cc1csc2ccccc12)C(=O)O; αAllylPro = C=CC[C@@]1(C(=O)O)CCCN1; tBuAla = CC(C)(C)C[C@H](N)C(=O)O; 3Thi = N[C@@H](Cc1ccsc1)C(=O)O; S8 = C=CCCCCCC[C@](C)(N)C(=O)O; hLeu = CC(C)CC[C@H](N)C(=O)O; Dap = NC[C@H](N)C(=O)O; Ms = CS(=O)(=O)*
Please note: IC50 exactly at 40 nM is N. Only values below 40 nM get Y.

Ac-[αAllylPro][Dap](Ms)A[B5(4)]DEAAFN[S8]F[Bta]Q-NH2 (staple 1-4, 4-11) [I-534] | N
Ac-[αAllylPro]D[hLeu][B5(4)]DEAAFQ[S8]F[Bta]Q-NH2 (staple 1-4, 4-11) [I-545] | Y
Ac-[αAllylPro]DA[B5(4)]D[Dap](Ms)AAFN[S8]F[Bta]Q-NH2 (staple 1-4, 4-11) [I-533] | N
Ac-[αAllylPro]DI[B5(4)]DDAAFN[S8][3Thi][Bta]Q-NH2 (staple 1-4, 4-11) [I-552] | Y
Ac-[αAllylPro]DI[B5(4)]DDAAFN[S8][3Thi][Bta]Q-NH2 (staple 1-4, 4-11) [I-551] | N
Ac-[αAllylPro]DI[B5(4)]DDAAFN[S8][3Thi][Bta]H-NH2 (staple 1-4, 4-11) [I-556] | Y
Ac-[αAllylPro]D[tBuAla][B5(4)]DEAAFQ[S8]F[Bta]Q-NH2 (staple 1-4, 4-11) [I-544] | Y
